Reference source: the supplement of paper PMC8728848

binders and their reported glycan array binding signal (z-score)
target: GlcNAc(b1-3)GalNAc; assay: glycan array binding signal (z-score within array); higher = stronger binding; settings: glycan notation: IUPAC condensed, linker removed
About 410 targets per protein were measured; listed, in parts, are those with the strongest signals and a random draw of the rest.
Output: the number by itself.

CM2 (Cordyceps militaris) (protein) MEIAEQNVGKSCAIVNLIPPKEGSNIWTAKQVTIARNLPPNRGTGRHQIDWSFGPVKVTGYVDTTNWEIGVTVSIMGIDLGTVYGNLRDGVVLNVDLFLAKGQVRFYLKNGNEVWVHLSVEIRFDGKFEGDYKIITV :: -0.452

Query: Name the recorded glycan array binding signal (z-score) for Cohesin-hDCIR (Homo sapiens) (protein) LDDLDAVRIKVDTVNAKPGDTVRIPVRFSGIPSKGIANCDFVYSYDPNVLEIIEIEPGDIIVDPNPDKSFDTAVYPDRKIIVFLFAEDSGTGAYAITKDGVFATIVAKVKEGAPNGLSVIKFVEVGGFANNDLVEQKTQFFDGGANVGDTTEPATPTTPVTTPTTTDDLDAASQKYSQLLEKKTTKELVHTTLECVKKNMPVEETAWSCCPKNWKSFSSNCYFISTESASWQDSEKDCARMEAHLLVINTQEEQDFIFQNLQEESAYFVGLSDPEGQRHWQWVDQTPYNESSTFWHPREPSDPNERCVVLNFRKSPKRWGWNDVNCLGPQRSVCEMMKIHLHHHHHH .
Reply: -0.415

Query: Which glycan array binding signal (z-score) is reported for this binder? HFR-3 (Triticum aestivum) (protein) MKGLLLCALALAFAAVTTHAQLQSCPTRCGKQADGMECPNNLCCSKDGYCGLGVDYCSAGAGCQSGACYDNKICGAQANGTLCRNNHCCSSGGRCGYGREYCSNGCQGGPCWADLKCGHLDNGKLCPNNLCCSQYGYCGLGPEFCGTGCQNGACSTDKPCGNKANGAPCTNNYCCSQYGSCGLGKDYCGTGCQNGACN
Reply: 2.18
